Attribution: patent US20030166001A1

# Measurement target: murine TLR9 (Mus musculus)
# Sequence (Q9EQU3 26-1032): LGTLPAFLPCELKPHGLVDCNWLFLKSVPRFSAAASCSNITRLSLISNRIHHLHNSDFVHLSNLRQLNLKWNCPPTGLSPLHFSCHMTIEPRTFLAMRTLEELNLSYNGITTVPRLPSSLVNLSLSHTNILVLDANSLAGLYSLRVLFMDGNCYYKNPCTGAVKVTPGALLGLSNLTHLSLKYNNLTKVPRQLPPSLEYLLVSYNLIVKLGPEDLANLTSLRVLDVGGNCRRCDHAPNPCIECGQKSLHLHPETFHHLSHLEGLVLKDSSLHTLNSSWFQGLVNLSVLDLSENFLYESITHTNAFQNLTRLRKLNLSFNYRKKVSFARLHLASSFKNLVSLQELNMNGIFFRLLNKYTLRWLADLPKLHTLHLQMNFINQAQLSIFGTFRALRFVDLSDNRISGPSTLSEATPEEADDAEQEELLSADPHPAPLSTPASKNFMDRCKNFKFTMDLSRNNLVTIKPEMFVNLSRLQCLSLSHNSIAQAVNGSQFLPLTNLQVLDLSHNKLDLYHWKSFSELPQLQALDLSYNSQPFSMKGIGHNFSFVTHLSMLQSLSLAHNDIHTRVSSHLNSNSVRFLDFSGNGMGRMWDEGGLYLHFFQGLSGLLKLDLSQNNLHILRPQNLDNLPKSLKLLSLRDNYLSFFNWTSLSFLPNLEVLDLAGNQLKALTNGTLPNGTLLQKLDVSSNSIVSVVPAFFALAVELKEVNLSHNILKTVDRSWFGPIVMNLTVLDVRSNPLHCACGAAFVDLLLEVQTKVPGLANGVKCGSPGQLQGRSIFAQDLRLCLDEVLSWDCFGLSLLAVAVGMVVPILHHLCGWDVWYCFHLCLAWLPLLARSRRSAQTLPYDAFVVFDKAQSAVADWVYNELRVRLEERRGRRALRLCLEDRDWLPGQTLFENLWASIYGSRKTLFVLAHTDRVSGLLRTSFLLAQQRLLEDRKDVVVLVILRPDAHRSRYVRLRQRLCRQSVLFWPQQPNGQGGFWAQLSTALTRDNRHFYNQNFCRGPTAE
# Protocol: 293 fibroblasts stably transfected with murine TLR9 and NF-κB-luciferase reporter, ODN stimulation
# Recorded conditions: read-out: EC50 (concentration of the ligand stimulus that results in 50% maximal activation), NF-κB luciferase induction; stimulated for 16 hours; ODN titrated between 10 μM and 2 nM; FIG. 6
In the oligonucleotide strings, read from the 5' end, every base follows the letter of its sugar. An asterisk marks phosphorothioate; unmarked linkages are phosphodiester. Other units and linkages are bracketed, terminal groups are in braces. A string of capitals states the bases alone. d = 2'-deoxy (DNA)
Quantity measured: EC50 (nM)

Substance	Measurement target	Quantity measured	Recorded result
T*C*C*A*T*G*A*C*G*T*T*T*T*T (dT*dC*dC*dA*dT*dG*dA*dC*dG*dT*dT*dT*dT*dT) [ODN 5897]	murine TLR9 (Mus musculus)	EC50	1220
T*C*C*A*T*G*A*C*G*T*T*T*T*T*G*A*T*G*T*T (TCCATGACGTTTTTGATGTT; chemistry not given here) [ODN 5890]	murine TLR9 (Mus musculus)	EC50	42
